Recorded values, source patent US20200283507A1.

target: T1, Hu/NoV/GII.7/DC119/U.S. VLP (human norovirus GII.7); assay: VLP ELISA
T1 construct: mature; baculovirus VLP; VP2 may be present
Measured minimum concentration of VHH able to recognize 100 ng of VLP, listed per entry for reference.
// return numeric value only (unit: ng/well, not printed)

VHH 19 (VHH, MD2004 library, subtractive biopanning; His6 tag; also called 19.1; clone 19) VHH: QVKLQQSGGGLVQPGGSLRLSCAASGFTFRNYAMSWVRQAPGKGLEWVSAIAAGGAVTKYADSVKGRFTISRDNARDTLYLQMNSLKPEDTAVYYCAKPRDFWYSPEFDFRGQGTQVTVSS; 1

Just so you know, measured minimum concentration of VHH able to recognize 100 ng of VLP for VHH 5.4 (VHH, llama VHH, MD2004 library; pHEN6, C-terminal His6 tag; also called clone 5.4) VHH: QVQLQQSGGGLVQPGGSLRLSCVASESTVSINIMGWYRQAPGKQRELVATITTGGTTNYADSVKGRFTISRDNAKNTVYLQMNSLEPEDTAVYYCNLKRRDLQARFGGYWGQGTQVTVSS came out at 0.5

Just so you know, measured minimum concentration of VHH able to recognize 100 ng of VLP for VHH 7.5 (VHH, llama VHH, MD2004 library; pHEN6, C-terminal His6 tag; also called clone 7.5) VHH: QVKLQESGGGLVQAGESLRLSCAASGSNFSINGVGWYRQAPGKQRELVAGITNGGYTSYADSVKGRFTISTDNAKNTVYLQMNSLRPEDTAVYYCNANFQIHRSGADYVRNYWGQGTQVTVSA came out at 1

Just so you know, measured minimum concentration of VHH able to recognize 100 ng of VLP for VHH 4.1 (VHH, llama VHH, MD2004 library; pHEN6, C-terminal His6 tag; also called clone 4.1) VHH: QVKLQQSGGGLVQPGGSLRLSCAASESTISINTLGWYRQAPGNQRELVATITTGGTTNYADSVKGRFTISRDNAKNTVYLQMNNLEPGDTAVYYCNLKRRDLQSRFGGYWGQGTQVTVSS came out at 0.5
